tested on: A549-TP53BP1-CLTA; assay: phenotypically active (imaging signature differs from DMSO and reproducible) at any of 0.3-9 uM (binary (1 = active, 0 = inactive)); higher = active; details: treatment time: 24 h
Where a name gives a salt, the structure may show the parent alone.
Endpoint Label: phenotypically active
// return a plain number; no unit text

A selection of reference data follows.
Molecule	phenotypically active
C#C[C@]1(O)CC[C@H]2[C@@H]3CCc4cc(OC)ccc4[C@H]3CC[C@@]21C	0
C=CC(=O)Nc1cccc(Nc2nc(Nc3ccc(Oc4ccnc(C(=O)NC)c4)cc3)ncc2F)c1	1
O=C1NCCN1CCN1CCC(c2cn(-c3ccc(F)cc3)c3ccc(Cl)cc23)CC1	1
C/C(=C/c1ccc(C(=O)O)cc1)c1ccc2c(c1)C(C)(C)CCC2(C)C	0
Cc1ccc(NC(=O)c2ccc(CN3CCN(C)CC3)cc2)cc1Nc1nc(-c2cccnc2)cs1	1

Summary for this molecule, `CN(C)CC/C=C1\c2ccccc2COc2ccc(CC(=O)O)cc21` : phenotypically active is 0

For reference, reported phenotypically active for `O=c1ncn2nc(Sc3ccc(F)cc3F)ccc2c1-c1c(Cl)cccc1Cl` stands at 0

Looking up `COc1cc(C[C@H]2C(=O)OC[C@@H]2Cc2ccc(OC)c(OC)c2)ccc1O` , I see its phenotypically active listed as 1

Briefly, phenotypically active measured for `CN1C(=O)/C(=C2/Nc3ccccc3/C2=N/O)c2ccc(Br)cc21` : 0

The value of phenotypically active measured for the molecule `CC[C@H](C)[C@H](NC(=O)OCc1ccccc1)C(=O)N[C@@H](CCC(=O)OC(C)(C)C)C(=O)N[C@@H](C)C(=O)N[C@H](C=O)CC(C)C` turned out to be 1

Lab book: phenotypically active of `C/C=C1/[C@H]2C=C(C)C[C@]1(N)c1ccc(=O)[nH]c1C2` noted as 0

// `CC(C)N(CCCNC(=O)Nc1ccc(C(C)(C)C)cc1)C[C@H]1O[C@@H](n2cc(Br)c3c(N)ncnc32)[C@H](O)[C@@H]1O` : phenotypically active value = 1

The molecule listed as `CCOC(=O)c1c(CSc2ccccc2)n(C)c2cc(Br)c(O)c(CN(C)C)c12` has a reported phenotypically active of 0

Measured phenotypically active, CC1(CN2CCC(n3c(=O)[nH]c4ccccc43)CC2)OCc2ccccc2-n2cccc21 (configuration not stated) : 0

Documented phenotypically active of O=C(NC(NC(=S)Nc1ccc(F)c([N+](=O)[O-])c1)C(Cl)(Cl)Cl)C(c1ccccc1)c1ccccc1 (configuration not stated) : 1

The molecule `Cc1cc(Nc2ncc3c(n2)N(C)C(=O)N(c2cc(NC(=O)c4cccc(C(F)(F)F)c4)ccc2C)C3)n(C)n1` showed phenotypically active equal to 1

For O=S(=O)(c1cccc2c(O)nccc12)N1CCCNCC1 [HA 1100 hydrochloride] the molecule record lists phenotypically active as 1
